Each item that follows carries a reported AC50.
Target: Bile salt export pump (Homo sapiens); further: assay procedure not described here
Sequence (O95342 whole entry): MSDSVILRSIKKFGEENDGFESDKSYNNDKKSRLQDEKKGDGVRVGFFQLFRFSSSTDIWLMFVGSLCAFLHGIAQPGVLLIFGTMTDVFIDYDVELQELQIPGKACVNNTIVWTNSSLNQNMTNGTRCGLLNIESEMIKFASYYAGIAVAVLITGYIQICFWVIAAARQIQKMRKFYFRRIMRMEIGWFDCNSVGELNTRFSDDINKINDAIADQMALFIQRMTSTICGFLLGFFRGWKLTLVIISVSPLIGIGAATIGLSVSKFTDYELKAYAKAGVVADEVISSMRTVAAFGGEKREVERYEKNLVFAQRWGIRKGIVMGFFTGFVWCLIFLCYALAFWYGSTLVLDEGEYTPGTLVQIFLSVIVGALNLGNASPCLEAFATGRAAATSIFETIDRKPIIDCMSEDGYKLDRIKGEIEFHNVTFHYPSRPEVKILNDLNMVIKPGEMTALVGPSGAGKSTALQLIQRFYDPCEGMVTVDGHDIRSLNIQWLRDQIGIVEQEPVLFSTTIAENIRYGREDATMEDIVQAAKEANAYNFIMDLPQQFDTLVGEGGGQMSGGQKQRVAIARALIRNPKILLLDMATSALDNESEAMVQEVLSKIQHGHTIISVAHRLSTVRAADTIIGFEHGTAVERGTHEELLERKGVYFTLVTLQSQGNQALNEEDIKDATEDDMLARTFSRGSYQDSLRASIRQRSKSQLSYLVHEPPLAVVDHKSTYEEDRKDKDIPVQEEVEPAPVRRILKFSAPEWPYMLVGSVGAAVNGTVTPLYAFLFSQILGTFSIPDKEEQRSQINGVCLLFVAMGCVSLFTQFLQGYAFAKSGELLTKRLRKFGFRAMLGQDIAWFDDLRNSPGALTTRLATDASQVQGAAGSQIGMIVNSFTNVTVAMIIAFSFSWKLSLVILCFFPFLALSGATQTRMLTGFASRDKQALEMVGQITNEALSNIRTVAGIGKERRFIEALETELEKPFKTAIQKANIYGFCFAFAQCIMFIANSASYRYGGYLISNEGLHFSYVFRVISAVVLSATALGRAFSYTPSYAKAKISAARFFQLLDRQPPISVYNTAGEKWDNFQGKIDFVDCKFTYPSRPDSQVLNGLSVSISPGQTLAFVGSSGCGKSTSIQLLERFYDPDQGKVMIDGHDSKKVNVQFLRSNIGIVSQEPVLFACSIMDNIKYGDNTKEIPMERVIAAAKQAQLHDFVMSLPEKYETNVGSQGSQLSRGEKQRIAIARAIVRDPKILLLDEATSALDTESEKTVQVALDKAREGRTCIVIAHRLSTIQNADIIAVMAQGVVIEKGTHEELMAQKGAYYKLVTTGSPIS
Type: functional
measured.property: AC50

INSERT INTO results (compound, measured_property, val) VALUES
  ('C[N+]1(C)CCC(OC(=O)C(O)(c2ccccc2)C2CCCC2)C1 (stereo unspecified) [GLYCOPYRRONIUM BROMIDE]', 'AC50', '> 300 µM'),
  ('O=C(CCNNC(=O)c1ccncc1)NCc1ccccc1 [NIALAMIDE]', 'AC50', '> 300 µM'),
  ('C[C@]12CCC(=O)C=C1CC[C@@H]1[C@@H]2[C@@H](O)C[C@@]2(C)[C@H]1CC[C@]2(O)C(=O)CO [HYDROCORTISONE]', 'AC50', '> 300 µM'),
  ('CCCCCCOc1nsnc1C1=CCCN(C)C1', 'AC50', '> 300 µM'),
  ('CC[C@H]1OC(=O)[C@H](C)[C@@H](O[C@H]2C[C@@](C)(OC)[C@@H](O)[C@H](C)O2)[C@H](C)[C@@H](O[C@@H]2O[C@H](C)C[C@H](N(C)C)[C@H]2O)[C@](C)(O)C[C@@H](C)CN(C)[C@H](C)[C@@H](O)[C@]1(C)O', 'AC50', '200 µM'),
  ('CN1C(C(=O)Nc2ccccn2)=C(O)c2sc(Cl)cc2S1(=O)=O', 'AC50', '32 µM'),
  ('Cc1ccc(-c2cc(C(F)(F)F)nn2-c2ccc(S(N)(=O)=O)cc2)cc1', 'AC50', '34 µM'),
  ('CC(C)(S)[C@@H](N)C(=O)O', 'AC50', '> 300 µM'),
  ('COc1ccc(CC(C)(C)NC[C@H](O)c2cc(O)cc3c2OCC(=O)N3)cc1', 'AC50', '> 300 µM'),
  ('Cc1c(C(=O)NN2CCCCC2)nn(-c2ccc(Cl)cc2Cl)c1-c1ccc(Cl)cc1', 'AC50', '11.6 µM'),
  ('Clc1ccc2nsnc2c1NC1=NCCN1', 'AC50', '> 300 µM'),
  ('Cc1cn([C@H]2C=C[C@@H](CO)O2)c(=O)[nH]c1=O', 'AC50', '> 300 µM'),
  ('c1cnc(N2CCN(Cc3ccc4c(c3)OCO4)CC2)nc1', 'AC50', '130 µM'),
  ('CC1(C)NC(=O)N(c2ccc([N+](=O)[O-])c(C(F)(F)F)c2)C1=O [NILUTAMIDE]', 'AC50', '> 300 µM'),
  ('CC(C)C[C@H]1C(=O)N2CCC[C@H]2[C@]2(O)O[C@](NC(=O)[C@@H]3C=C4c5cccc6[nH]c(Br)c(c56)C[C@H]4N(C)C3)(C(C)C)C(=O)N12', 'AC50', '1.6 µM'),
  ('CCOC(=O)[C@H](CCc1ccccc1)N[C@@H](C)C(=O)N1[C@H](C(=O)O)C[C@@H]2CCC[C@@H]21', 'AC50', '> 300 µM');

----------
Molecular target: Estrogen receptor (Homo sapiens, UniProt P03372); further: assay procedure not described here
Sequence (P03372 whole entry): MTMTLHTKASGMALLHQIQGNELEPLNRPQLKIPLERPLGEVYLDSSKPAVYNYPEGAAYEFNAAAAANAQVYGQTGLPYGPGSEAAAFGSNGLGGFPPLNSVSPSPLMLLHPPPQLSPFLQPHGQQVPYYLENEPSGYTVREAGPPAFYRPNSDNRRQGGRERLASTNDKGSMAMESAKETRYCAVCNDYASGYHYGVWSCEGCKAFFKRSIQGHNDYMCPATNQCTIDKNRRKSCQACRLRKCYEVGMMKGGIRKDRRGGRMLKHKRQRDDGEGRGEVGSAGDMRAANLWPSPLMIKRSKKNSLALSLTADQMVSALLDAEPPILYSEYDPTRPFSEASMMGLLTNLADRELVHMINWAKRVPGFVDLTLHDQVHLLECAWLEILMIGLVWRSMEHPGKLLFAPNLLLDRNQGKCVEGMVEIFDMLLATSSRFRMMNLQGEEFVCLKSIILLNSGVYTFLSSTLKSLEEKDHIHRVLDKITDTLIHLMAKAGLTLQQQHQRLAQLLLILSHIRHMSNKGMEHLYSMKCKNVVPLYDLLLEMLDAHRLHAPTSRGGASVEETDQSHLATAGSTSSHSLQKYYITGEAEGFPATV
Each item that follows carries a reported AC50.
measured.property: AC50

INSERT INTO results (compound, measured_property, val) VALUES
  ('COc1ccc2c3c1O[C@H]1C(=O)CC[C@@]4(O)[C@@H](C2)N(C)CC[C@]314', 'AC50', '> 30 µM'),
  ('CC(=O)OCC(=O)[C@@]12N=C(C)O[C@@H]1C[C@H]1[C@@H]3CCC4=CC(=O)C=C[C@]4(C)[C@H]3[C@@H](O)C[C@@]12C', 'AC50', '> 30 µM'),
  ('COC(=O)[C@H]1[C@H]2C[C@@H]3c4[nH]c5cc(OC)ccc5c4CCN3C[C@H]2C[C@@H](OC(=O)/C=C/c2cc(OC)c(OC)c(OC)c2)[C@@H]1OC', 'AC50', '> 10 µM'),
  ('C=CCC1(CC(C)C)C(=O)NC(=O)NC1=O', 'AC50', '> 10 µM'),
  ('COC(=O)C1=C(C)NC(C)=C(C(=O)OC(C)(C)CN(C)CCC(c2ccccc2)c2ccccc2)C1c1cccc([N+](=O)[O-])c1 (stereo not given)', 'AC50', '> 30 µM'),
  ('CCOC(=O)[C@H](CCc1ccccc1)N[C@@H](C)C(=O)N1C(=O)N(C)C[C@H]1C(=O)O', 'AC50', '> 30 µM'),
  ('CC[C@H]1OC(=O)[C@H](C)[C@@H](O[C@H]2C[C@@](C)(OC)[C@@H](O)[C@H](C)O2)[C@H](C)[C@@H](O[C@@H]2O[C@H](C)C[C@H](N(C)C)[C@H]2O)[C@](C)(O)C[C@@H](C)CN(C)[C@H](C)[C@@H](O)[C@]1(C)O', 'AC50', '> 30 µM'),
  ('O=C(O)C1=C(CSc2nnnn2CS(=O)(=O)O)CS[C@@H]2[C@H](NC(=O)[C@H](O)c3ccccc3)C(=O)N12', 'AC50', '> 30 µM'),
  ('OC(CNCC(O)C1CCc2cc(F)ccc2O1)C1CCc2cc(F)ccc2O1 (stereo not given)', 'AC50', '> 30 µM'),
  ('CCOC(=O)[C@H](CCc1ccccc1)N[C@@H](C)C(=O)N1[C@H](C(=O)O)C[C@@H]2CCC[C@@H]21', 'AC50', '> 30 µM'),
  ('CC1(C)O[C@@H]2C[C@H]3[C@@H]4CCC5=CC(=O)C=C[C@]5(C)[C@H]4[C@@H](O)C[C@]3(C)[C@]2(C(=O)CO)O1 [DESONIDE]', 'AC50', '> 30 µM'),
  ('CCOC(=O)OC(C)OC1=C(C(=O)Nc2ccccn2)N(C)S(=O)(=O)c2ccccc21 (stereo not given)', 'AC50', '> 30 µM'),
  ('CN1CCN(CC/C=C2/c3ccccc3Sc3ccc(S(=O)(=O)N(C)C)cc32)CC1', 'AC50', '> 30 µM'),
  ('CCOC(=O)[N-]c1cn(N2CCOCC2)n[o+]1', 'AC50', '> 30 µM'),
  ('CCCCN1C[C@H](O)[C@@H](O)[C@H](O)[C@H]1CO', 'AC50', '> 30 µM');
